Each recorded value in this set is attributed to patent US20110052582A1.

Target: T1, Soluble CDCP1 extracellular domain (CDCP1-ECD) (SEQ ID NO:30) fused to Streptavidin Binding Protein (SBP) (human, UniProt Q9H5V8 30-663)
T1 construct: also called SBP-CDCP1-ECD
T1 sequence: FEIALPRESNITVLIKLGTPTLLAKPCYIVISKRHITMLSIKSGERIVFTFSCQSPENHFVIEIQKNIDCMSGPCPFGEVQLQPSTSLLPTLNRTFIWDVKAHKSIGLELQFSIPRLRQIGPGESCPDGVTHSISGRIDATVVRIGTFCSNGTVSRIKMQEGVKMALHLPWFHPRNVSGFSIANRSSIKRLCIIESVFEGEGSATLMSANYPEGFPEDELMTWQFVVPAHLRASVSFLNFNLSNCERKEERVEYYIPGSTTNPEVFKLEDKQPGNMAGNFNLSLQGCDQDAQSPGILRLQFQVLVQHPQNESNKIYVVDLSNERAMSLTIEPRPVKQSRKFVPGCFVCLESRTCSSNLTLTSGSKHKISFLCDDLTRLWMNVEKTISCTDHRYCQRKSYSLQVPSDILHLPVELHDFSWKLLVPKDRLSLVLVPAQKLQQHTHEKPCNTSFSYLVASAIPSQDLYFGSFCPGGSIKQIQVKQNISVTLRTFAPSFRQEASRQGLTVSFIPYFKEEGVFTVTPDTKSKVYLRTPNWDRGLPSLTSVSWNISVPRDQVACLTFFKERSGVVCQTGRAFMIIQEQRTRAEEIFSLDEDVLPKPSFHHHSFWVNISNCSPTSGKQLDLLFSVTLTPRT
Assay: ELISA on captured SBP-CDCP1-ECD, ratio relative to chimeric CUB4 (chHC4)
quantity name: binding result

[ask] Would you mind telling me what binding result value was observed for hHC4-H / hLC4-I (antibody, V domains shown) VH: EVQLVESGGGLVQPGGSLRLSCAASGFTFNSYGMSWVRQAPGKGLEWVATISSGGSYKYYVDSVKGRFTISRDNAKNSLYLQMNSLRAEDTAVYYCARHPDYDGVWFAYWGQGTLVTVSS VL: EIVMTQSPATLSLSPGERATLSCRASSSVFYLSWYQQKPGQAPRLWIYDTSKLASGIPARFSGSGSGTDFTLTISSLQPEDFAVYYCQQWNSNPPTFGGGTKVEIK ?
[reply] no binding

[ask] Would you mind telling me what binding result value was observed for hHC4-b / hLC4-J (antibody, V domains shown) VH: EVQLVESGGGLVKPGGSLRLSCAASGFTFNSYSMNWVRQAPGKGLEWVSSISSGGSYIYYADSVKGRFTISRDNAKNSLYLQMNSLRAEDTAVYYCARHPDYDGVWFAYWGQGTLVTVSS VL: EIVMTQSPATLSLSPGERATMSCRASSSVFYLHWYQQKPGQAPRLWIYDTSKLASGIPARFSGSGSGTDFTLTISSLQPEDFAVYYCQQWNSNPPTFGGGTKVEIK ?
[reply] no binding

[ask] Would you mind telling me what binding result value was observed for hHC4-c / hLC4-I (antibody, V domains shown) VH: EVQLVESGGGLVQPGGSLRLSCAASGFTFNSYGMSWVRQAPGKGLEWVATISSGGSYTYYPDSVKGRFTISRDNAKNSLYLQMNSLRAEDTAVYYCARHPDYDGVWFAYWGQGTLVTVSS VL: EIVMTQSPATLSLSPGERATLSCRASSSVFYLSWYQQKPGQAPRLWIYDTSKLASGIPARFSGSGSGTDFTLTISSLQPEDFAVYYCQQWNSNPPTFGGGTKVEIK ?
[reply] no binding
